These measurements were taken from paper PMC9468151.

- Tested on: BMM cells
- ASSAY OVERVIEW: Osteoclastogenic assay of WT, single-point mutated sRANKL and L-RANKL
- Type: cell-based, mouse
- CONDITION SET: BMMs, M-CSF 10 ng/mL, sRANKL protein 50 ng/mL
MEASURED ATTRIBUTE: number of osteoclasts (fig. 1f)
Just the number, please, no unit attached.

MOLECULE	MEASURED ATTRIBUTE	VALUE OBSERVED
D301A: single-point mutated rat sRANKL (protein, left off: His6, N-terminal, cleaved | SUMO, N-terminal, cleaved, single-point mutated rat sRANKL) KPEAQPFAHLTINAADIPSGSHKVSLSSWYHDRGWAKISNMTLSNGKLRVNQDGFYYLYANICFRHHETSGSVPADYLQLMVYVVKTSIKIPSSHNLMKGGSTKNWSGNSEFHFYSINVGGFFKLRAGEEISVQVSNPSLLAPDQDATYFGAFKVQDID	number of osteoclasts (fig. 1f)	0

What value of measured number of osteoclasts (fig. 1f) is listed for D303A: single-point mutated rat sRANKL (protein, left off: His6, N-terminal, cleaved | SUMO, N-terminal, cleaved, single-point mutated rat sRANKL) KPEAQPFAHLTINAADIPSGSHKVSLSSWYHDRGWAKISNMTLSNGKLRVNQDGFYYLYANICFRHHETSGSVPADYLQLMVYVVKTSIKIPSSHNLMKGGSTKNWSGNSEFHFYSINVGGFFKLRAGEEISVQVSNPSLLDPAQDATYFGAFKVQDID ?
0

// next record E227A: single-point mutated rat sRANKL (protein, left off: His6, N-terminal, cleaved | SUMO, N-terminal, cleaved, single-point mutated rat sRANKL) KPEAQPFAHLTINAADIPSGSHKVSLSSWYHDRGWAKISNMTLSNGKLRVNQDGFYYLYANICFRHHATSGSVPADYLQLMVYVVKTSIKIPSSHNLMKGGSTKNWSGNSEFHFYSINVGGFFKLRAGEEISVQVSNPSLLDPDQDATYFGAFKVQDID
0

// next record E270A: single-point mutated rat sRANKL (protein, left off: His6, N-terminal, cleaved | SUMO, N-terminal, cleaved, single-point mutated rat sRANKL) KPEAQPFAHLTINAADIPSGSHKVSLSSWYHDRGWAKISNMTLSNGKLRVNQDGFYYLYANICFRHHETSGSVPADYLQLMVYVVKTSIKIPSSHNLMKGGSTKNWSGNSAFHFYSINVGGFFKLRAGEEISVQVSNPSLLDPDQDATYFGAFKVQDID
0

// next record K182A: single-point mutated rat sRANKL (protein, left off: His6, N-terminal, cleaved | SUMO, N-terminal, cleaved, single-point mutated rat sRANKL) KPEAQPFAHLTINAADIPSGSHAVSLSSWYHDRGWAKISNMTLSNGKLRVNQDGFYYLYANICFRHHETSGSVPADYLQLMVYVVKTSIKIPSSHNLMKGGSTKNWSGNSEFHFYSINVGGFFKLRAGEEISVQVSNPSLLDPDQDATYFGAFKVQDID
0

// next record R224A: single-point mutated rat sRANKL (protein, left off: His6, N-terminal, cleaved | SUMO, N-terminal, cleaved, single-point mutated rat sRANKL) KPEAQPFAHLTINAADIPSGSHKVSLSSWYHDRGWAKISNMTLSNGKLRVNQDGFYYLYANICFAHHETSGSVPADYLQLMVYVVKTSIKIPSSHNLMKGGSTKNWSGNSEFHFYSINVGGFFKLRAGEEISVQVSNPSLLDPDQDATYFGAFKVQDID
0

// next record H226A: single-point mutated rat sRANKL (protein, UniProt Q9ESE2 69-318, looked up, variant H226A, extracellular domain, single-point mutated rat sRANKL) extracellular domain: LYFRAQMDPNRISEDSTRCFYRILRLRENTGLQDSTLESEDTEALPDSCRRMKQAFQGAVQRELQHIVGPQRFSGVPAMMEGSWLDVARRGKPEAQPFAHLTINAADIPSGSHKVSLSSWYHDRGWAKISNMTLSNGKLRVNQDGFYYLYANICFRHAETSGSVPADYLQLMVYVVKTSIKIPSSHNLMKGGSTKNWSGNSEFHFYSINVGGFFKLRAGEEISVQVSNPSLLDPDQDATYFGAFKVQDID
0
